testTarget: T1, recombinant purified cyno IL-12 p70 (cynomolgus monkey)
T1 chain 1: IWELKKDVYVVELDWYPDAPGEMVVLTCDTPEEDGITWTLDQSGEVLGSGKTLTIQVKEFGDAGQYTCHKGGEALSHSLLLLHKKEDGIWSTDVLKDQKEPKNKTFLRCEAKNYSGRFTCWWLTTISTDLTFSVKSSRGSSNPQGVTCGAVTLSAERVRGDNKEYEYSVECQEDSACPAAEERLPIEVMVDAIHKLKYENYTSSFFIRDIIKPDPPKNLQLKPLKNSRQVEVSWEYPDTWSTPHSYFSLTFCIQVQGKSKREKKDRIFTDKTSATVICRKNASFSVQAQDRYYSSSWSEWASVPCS
T1 chain 2: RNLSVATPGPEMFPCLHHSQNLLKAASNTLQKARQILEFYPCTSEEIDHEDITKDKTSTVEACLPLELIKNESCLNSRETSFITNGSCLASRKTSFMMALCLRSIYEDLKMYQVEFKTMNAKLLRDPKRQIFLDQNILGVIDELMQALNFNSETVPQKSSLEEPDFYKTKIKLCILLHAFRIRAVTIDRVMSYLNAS
procedureSummary: cell-based or functional assay
quantity: Av. IC50 (nM) Cyno IL-12, PHA blast assay
Record the value in nM, omitting the unit from your answer.

*Q* Return Av. IC50 (nM) Cyno IL-12, PHA blast assay (reported value) for this binder: CDR grafted anti IL-12p40 antibody 1A6.1 (antibody, human IgG1, kappa, L234A L235A, V domains shown, Full-length CDR-grafted antibody, COS cells) VH: EVTLRESGPALVKPTQTLTLTCTFSGFSLSTSGMGVSWIRQPPGKALEWLAHIWWDGDNYYNPSLKSRLTISKDTSKNQVVLTMTNMDPVDTATYYCARRTRVNYAMDYWGQGTTVTVSS VL: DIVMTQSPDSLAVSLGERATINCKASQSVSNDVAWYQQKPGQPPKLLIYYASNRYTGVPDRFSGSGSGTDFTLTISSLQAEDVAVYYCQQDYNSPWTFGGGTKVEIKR
*A* 0.57

*Q* Return Av. IC50 (nM) Cyno IL-12, PHA blast assay (reported value) for this binder: CDR grafted anti IL-12p40 antibody 8E1.1 (antibody, human IgG1, kappa, L234A L235A, V domains shown, Full-length CDR-grafted antibody, COS cells) VH: EVQLVESGGGLVQPGGSLRLSCAASGFTFSDYGMVWVRQAPGKGLEWVGSISSGSSNIYYADTVKGRFTISRDDSKNSLYLQMNSLKTEDTAVYYCARNPYWGQGTTVTVSS VL: DIQMTQSPSSLSASVGDRVTITCKASQNVGTNVAWYQQKPEKAPKSLIYSASHRYSGVPSRFSGSGSGTDFTLTISSLQPEDFATYYCQQYNSYPLTFGGGTKVEIKR
*A* 4.6

*Q* Return Av. IC50 (nM) Cyno IL-12, PHA blast assay (reported value) for this binder: CDR grafted anti IL-12p40 antibody 1D4.3 (antibody, human IgG1, kappa, L234A L235A, V domains shown, Full-length CDR-grafted antibody, COS cells) VH: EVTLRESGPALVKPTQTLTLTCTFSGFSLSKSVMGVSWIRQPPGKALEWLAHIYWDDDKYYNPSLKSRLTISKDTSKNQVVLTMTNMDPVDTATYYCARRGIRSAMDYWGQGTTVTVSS VL: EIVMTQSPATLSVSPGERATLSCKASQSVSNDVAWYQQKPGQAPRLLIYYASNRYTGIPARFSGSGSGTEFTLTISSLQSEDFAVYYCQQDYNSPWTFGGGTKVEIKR
*A* 1.6

*Q* Return Av. IC50 (nM) Cyno IL-12, PHA blast assay (reported value) for this binder: CDR grafted anti IL-12p40 antibody 1D4.2 (antibody, human IgG1, kappa, L234A L235A, V domains shown, Full-length CDR-grafted antibody, COS cells) VH: EVTLKESGPVLVKPTETLTLTCTVSGFSLSKSVMGVSWIRQPPGKALEWLAHIYWDDDKYYNPSLKSRLTISKDTSKSQVVLTMTNMDPVDTATYYCARRGIRSAMDYWGQGTTVTVSS VL: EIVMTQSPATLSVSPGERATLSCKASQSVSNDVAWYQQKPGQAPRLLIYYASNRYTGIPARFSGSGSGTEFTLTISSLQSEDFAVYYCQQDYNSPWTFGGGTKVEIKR
*A* 3

*Q* Return Av. IC50 (nM) Cyno IL-12, PHA blast assay (reported value) for this binder: CDR grafted anti IL-12p40 antibody 3G7.2 (antibody, human IgG1, kappa, L234A L235A, V domains shown, Full-length CDR-grafted antibody, COS cells) VH: EVQLVQSGAEVKKPGASVKVSCKASGYTFTDYWIEWVRQAPGQGLEWMGGFSHGSGSTNYNEKFKGRVTMTTDTSTSTAYMELRSLRSDDTAVYYCARRRFRGMDYWGQGTTVTVSS VL: EIVMTQSPATLSVSPGERATLSCKASQSVSNDVAWYQQKPGQAPRLLIYYASNRYTGIPARFSGSGSGTEFTLTISSLQSEDFAVYYCQQDYSSPWSFGGGTKVEIKR
*A* 0.7

*Q* Return Av. IC50 (nM) Cyno IL-12, PHA blast assay (reported value) for this binder: CDR grafted anti IL-12p40 antibody 1A6.5 (antibody, human IgG1, kappa, L234A L235A, V domains shown, Full-length CDR-grafted antibody, COS cells) VH: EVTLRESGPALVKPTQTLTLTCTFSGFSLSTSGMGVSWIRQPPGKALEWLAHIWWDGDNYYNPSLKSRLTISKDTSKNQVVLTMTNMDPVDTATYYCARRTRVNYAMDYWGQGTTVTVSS VL: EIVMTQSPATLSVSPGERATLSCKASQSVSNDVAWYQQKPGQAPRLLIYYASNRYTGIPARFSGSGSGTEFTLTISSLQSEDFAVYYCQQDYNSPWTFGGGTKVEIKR
*A* 1.1

*Q* Return Av. IC50 (nM) Cyno IL-12, PHA blast assay (reported value) for this binder: CDR grafted anti IL-12p40 antibody 1A6.6 (antibody, human IgG1, kappa, L234A L235A, V domains shown, Full-length CDR-grafted antibody, COS cells) VH: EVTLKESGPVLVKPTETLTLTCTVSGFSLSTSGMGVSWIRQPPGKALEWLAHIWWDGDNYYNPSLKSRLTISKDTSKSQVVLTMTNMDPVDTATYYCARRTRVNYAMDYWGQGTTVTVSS VL: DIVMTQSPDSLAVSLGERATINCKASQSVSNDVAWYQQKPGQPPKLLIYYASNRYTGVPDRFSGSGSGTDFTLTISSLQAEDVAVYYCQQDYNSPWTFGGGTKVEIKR
*A* 0.14
